System: Cephalothinsensitive E. coli (2 strains), Kl. pneumoniae (1 strain) and Pr. mirabilis (2 strains)
ASSAY NAME: MIC, two-fold serial agar dilution, group (G-)-Ia
Type: cell-based
TEST SETTINGS: 5 strains, Mueller-Hinton agar, read-out: Geometric Mean of MIC
ENDPOINT: MIC (µg/mL)
Answers are plain numbers, in µg/mL.

                                   compound  endpoint  numeric_readout
0  C#CCO/N=C(\C(=O)NC1C(=O)N2C(C(=O)[O-])=C(C[n+]3ccc4sc(N)nc4c3)CS[C@H]12)c1csc(N)n1 (stereo partly shown)       MIC            0.029
1  CO/N=C(\C(=O)NC1C(=O)N2C(C(=O)[O-])=C(C[n+]3ccc4sc(NC(=O)N5CCCC5)nc4c3)CS[C@H]12)c1csc(N)n1 (stereo partly shown)       MIC              0.3
2  C=CCO/N=C(\C(=O)NC1C(=O)N2C(C(=O)[O-])=C(C[n+]3ccc4scnc4c3)CSC12)c1csc(N)n1 (stereo not shown)       MIC            0.053

State the recorded MIC for every item in the following list.
1. CO/N=C(\C(=O)NC1C(=O)N2C(C(=O)[O-])=C(C[n+]3ccc4sc(NC(C)=O)nc4c3)CS[C@H]12)c1csc(N)n1 (stereo partly shown)
2. CO/N=C(\C(=O)NC1C(=O)N2C(C(=O)[O-])=C(C[n+]3ccc4sc(NC(=O)CN)nc4c3)CS[C@H]12)c1csc(N)n1 (stereo partly shown)
3. CO/N=C(\C(=O)NC1C(=O)N2C(C(=O)[O-])=C(C[n+]3ccc4sc(SC)nc4c3)CSC12)c1csc(N)n1 (stereo not shown)
4. CC(C)(O/N=C(\C(=O)NC1C(=O)N2C(C(=O)[O-])=C(C[n+]3ccc4sc(N)nc4c3)CSC12)c1csc(N)n1)C(=O)O (stereo not shown)

Given back:
1. 0.037
2. 0.038
3. 0.025
4. 0.023

----------
ASSAY NAME: Mouse blood levels after single intramuscular injection
Format: in vivo, mice
TEST SETTINGS: in vivo, im, 20 mg/kg
Assignment: determine reported half-life for the given molecules.
One number for each entry, in min.

                                   molecule  numeric_readout
0  Nc1nc(/C(=N/OCC(=O)O)C(=O)NC2C(=O)N3C(C(=O)[O-])=C(C[n+]4ccc5sc(N)nc5c4)CS[C@H]23)cs1 (some centres unmarked)               22
1  CO/N=C(\C(=O)NC1C(=O)N2C(C(=O)[O-])=C(C[n+]3ccc4sc(NC(=O)N5CCCC5)nc4c3)CS[C@H]12)c1csc(N)n1 (some centres unmarked)               24
2  CO/N=C(\C(=O)NC1C(=O)N2C(C(=O)[O-])=C(C[n+]3ccc4sc(SC)nc4c3)CSC12)c1csc(N)n1 (centres unmarked)               13
3  CO/N=C(\C(=O)NC1C(=O)N2C(C(=O)[O-])=C(C[n+]3ccc4sc(C)nc4c3)CSC12)c1csc(N)n1 (centres unmarked)               16

Look up half-life for the entries below, preserving their order.
1. CO/N=C(\C(=O)NC1C(=O)N2C(C(=O)[O-])=C(C[n+]3ccc4sc(N)nc4c3)CSC12)c1csc(N)n1 (centres unmarked)
2. CO/N=C(\C(=O)NC1C(=O)N2C(C(=O)[O-])=C(C[n+]3ccc4sc(C=O)nc4c3)CSC12)c1csc(N)n1 (centres unmarked)
3. CO/N=C(\C(=O)NC1C(=O)N2C(C(=O)[O-])=C(C[n+]3ccc4sc(C(N)=O)nc4c3)CS[C@H]12)c1csc(N)n1 (some centres unmarked)
4. C=CCO/N=C(\C(=O)NC1C(=O)N2C(C(=O)[O-])=C(C[n+]3ccc4scnc4c3)CSC12)c1csc(N)n1 (centres unmarked)
5. CO/N=C(\C(=O)NC1C(=O)N2C(C(=O)[O-])=C(C[n+]3ccc4sc(NC(=O)OC)nc4c3)CS[C@H]12)c1csc(N)n1 (some centres unmarked)
6. CO/N=C(\C(=O)NC1C(=O)N2C(C(=O)[O-])=C(C[n+]3ccc4scnc4c3)CS[C@H]12)c1csc(N)n1 (some centres unmarked)

Given back:
29
19
31
28
26
35

Kindly give each listed record's half-life.
1. CO/N=C(\C(=O)NC1C(=O)N2C(C(=O)[O-])=C(C[n+]3ccc4sc(NC(=O)CN)nc4c3)CS[C@H]12)c1csc(N)n1 (some centres unmarked)
2. CO/N=C(\C(=O)NC1C(=O)N2C(C(=O)[O-])=C(C[n+]3ccc4sc(NC(C)=O)nc4c3)CS[C@H]12)c1csc(N)n1 (some centres unmarked)
3. Cc1nc2c[n+](CC3=C(C(=O)[O-])N4C(=O)C(NC(=O)/C(=N\OC5(C(=O)O)CCC5)c5csc(N)n5)[C@H]4SC3)ccc2s1 (some centres unmarked)
4. CC(C)(O/N=C(\C(=O)NC1C(=O)N2C(C(=O)[O-])=C(C[n+]3ccc4scnc4c3)CS[C@H]12)c1csc(N)n1)C(=O)O (some centres unmarked)

Given back:
28
27
16
16
